Tested on: A549
Assay: Cytotoxicity against human A549 cells after 48 hrs by SRB assay
Type: functional, cell-based
Conditions: Homo sapiens, A549, 48 h
LC50 values for the compounds below.
measurement.label: LC50 (nM)

record_smiles=C/C=C1\NC(=O)[C@H](Cc2ccc(F)c(F)c2)NC(=O)[C@@H](C(C)C)NC(=O)[C@@H]([C@H](C)CC)NC(=O)[C@H](NC(=O)[C@H](NC(=O)[C@H](CCCN)NC(=O)[C@H]2CCCN2C(=O)[C@H](NC(=O)[C@@H](NC(=O)[C@@H](NC(=O)[C@H](NC(=O)CCCC(C)C)C(C)C)[C@@H](C)O)C(C)C)C(C)C)[C@H](C)CC)[C@H](C)OC(=O)[C@H](C(C)C)NC1=O measurement=968
record_smiles=C/C=C1\NC(=O)[C@H](Cc2ccccc2)NC(=O)[C@@H](C(C)C)NC(=O)[C@@H]([C@H](C)CC)NC(=O)[C@H](NC(=O)[C@H](NC(=O)[C@H](CCCNC(=O)CCCC[C@@H]2SC[C@@H]3NC(=O)N[C@@H]32)NC(=O)[C@H]2CCCN2C(=O)[C@H](NC(=O)[C@@H](NC(=O)[C@@H](NC(=O)[C@H](NC(=O)CCCC(C)C)C(C)C)[C@@H](C)O)C(C)C)C(C)C)[C@H](C)CC)[C@H](C)OC(=O)[C@H](C(C)C)NC1=O measurement=128
record_smiles=C/C=C1\NC(=O)[C@H](Cc2ccccc2)NC(=O)[C@@H](C(C)C)NC(=O)[C@@H]([C@H](C)CC)NC(=O)[C@H](NC(=O)[C@H](NC(=O)[C@H](CCCN)NC(=O)[C@H]2CCCN2C(=O)[C@H](NC(=O)[C@@H](NC(=O)[C@@H](NC(=O)[C@H](NC(=O)CC[C@@H](C)CC)C(C)C)[C@@H](C)O)C(C)C)C(C)C)[C@H](C)CC)[C@H](C)OC(=O)[C@H](C(C)C)NC1=O measurement=1320
record_smiles=C/C=C1\NC(=O)[C@H](Cc2ccccc2)NC(=O)[C@@H](C(C)C)NC(=O)[C@@H]([C@H](C)CC)NC(=O)[C@H](NC(=O)[C@H](NC(=O)[C@H](CCCN)NC(=O)[C@H]2CCCN2C(=O)[C@H](NC(=O)[C@H](CCCN)NC(=O)[C@@H](NC(=O)[C@H](NC(=O)CCCC(C)C)C(C)C)[C@@H](C)O)C(C)C)[C@H](C)CC)[C@H](C)OC(=O)[C@H](C(C)C)NC1=O measurement=1810
record_smiles=C/C=C1\NC(=O)[C@H](Cc2ccccc2)NC(=O)[C@@H](C(C)C)NC(=O)[C@@H]([C@H](C)CC)NC(=O)[C@H](NC(=O)[C@H](NC(=O)[C@H](CCCN)NC(=O)[C@H]2CCCN2C(=O)[C@H](NC(=O)[C@@H](NC(=O)[C@@H](NC(=O)[C@H](NC(=O)CC[C@H](C)CC)C(C)C)[C@@H](C)O)C(C)C)C(C)C)[C@H](C)CC)[C@H](C)OC(=O)[C@H](C(C)C)NC1=O measurement=1360
record_smiles=C/C=C1\NC(=O)[C@H](Cc2ccccc2)NC(=O)[C@@H](C(C)C)NC(=O)[C@@H]([C@H](C)CC)NC(=O)[C@H](NC(=O)[C@H](NC(=O)[C@H](CCCN)NC(=O)[C@H]2CCCN2C(=O)[C@H](NC(=O)CNC(=O)[C@@H](NC(=O)[C@H](NC(=O)CCCC(C)C)C(C)C)[C@@H](C)O)C(C)C)[C@H](C)CC)[C@H](C)OC(=O)[C@H](C(C)C)NC1=O measurement=1960
record_smiles=C/C=C1\NC(=O)[C@H](Cc2ccccc2)NC(=O)[C@@H](C(C)C)NC(=O)[C@@H]([C@H](C)CC)NC(=O)[C@H](NC(=O)[C@H](NC(=O)[C@H](CCCN)NC(=O)[C@H]2CCCN2C(=O)[C@H](NC(=O)[C@H](NC(=O)[C@@H](NC(=O)[C@H](NC(=O)CCCC(C)C)C(C)C)[C@@H](C)O)C(C)C)C(C)C)[C@H](C)CC)[C@H](C)OC(=O)[C@H](C(C)C)NC1=O measurement=1910
record_smiles=C/C=C1\NC(=O)[C@H](Cc2ccc(Cl)c(Cl)c2)NC(=O)[C@@H](C(C)C)NC(=O)[C@@H]([C@H](C)CC)NC(=O)[C@H](NC(=O)[C@H](NC(=O)[C@H](CCCN)NC(=O)[C@H]2CCCN2C(=O)[C@H](NC(=O)[C@@H](NC(=O)[C@@H](NC(=O)[C@H](NC(=O)CC[C@@H](C)CC)C(C)C)[C@@H](C)O)C(C)C)C(C)C)[C@H](C)CC)[C@H](C)OC(=O)[C@H](C(C)C)NC1=O measurement=6270
record_smiles=C/C=C1\NC(=O)[C@H](Cc2ccccc2)NC(=O)[C@@H](C(C)C)NC(=O)[C@@H]([C@H](C)CC)NC(=O)[C@H](NC(=O)[C@H](NC(=O)[C@H](CCCN)NC(=O)[C@H]2CCCN2C(=O)[C@H](NC(=O)[C@H](C)NC(=O)[C@@H](NC(=O)[C@H](NC(=O)CCCC(C)C)C(C)C)[C@@H](C)O)C(C)C)[C@H](C)CC)[C@H](C)OC(=O)[C@H](C(C)C)NC1=O measurement=1940
record_smiles=C/C=C1\NC(=O)[C@H](Cc2ccccc2)NC(=O)[C@@H](C(C)C)NC(=O)[C@@H]([C@H](C)CC)NC(=O)[C@H](NC(=O)[C@H](NC(=O)[C@H](CCCN)NC(=O)[C@H]2CCCN2C(=O)[C@H](NC(=O)[C@@H](NC(=O)[C@@H](NC(=O)[C@H](NC(=O)Cc2ccc(C(F)(F)F)cc2)C(C)C)[C@@H](C)O)C(C)C)C(C)C)[C@H](C)CC)[C@H](C)OC(=O)[C@H](C(C)C)NC1=O measurement=1100
